Entry source: patent US9296711B2

Biological target: SCD1 (Mus musculus, UniProt P13516)
Sequence (P13516 1-355): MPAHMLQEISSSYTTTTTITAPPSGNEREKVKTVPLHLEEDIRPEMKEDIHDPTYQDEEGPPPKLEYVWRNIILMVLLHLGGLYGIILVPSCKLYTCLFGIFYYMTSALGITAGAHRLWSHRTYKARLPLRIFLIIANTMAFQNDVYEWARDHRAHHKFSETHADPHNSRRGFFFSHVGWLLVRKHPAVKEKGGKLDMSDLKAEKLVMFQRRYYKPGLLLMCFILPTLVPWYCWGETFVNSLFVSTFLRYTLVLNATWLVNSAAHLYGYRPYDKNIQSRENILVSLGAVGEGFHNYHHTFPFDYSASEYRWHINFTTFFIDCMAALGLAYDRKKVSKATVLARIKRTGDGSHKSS
Quick reference for IC50 among some molecules
Write the value in µM as a bare number.

Examples with answers:
smiles.structure: NC(=O)c1cc(-c2ccc(OCc3c(F)cccc3Cl)cc2)no1
unit.descriptor: µM
value.observed: 3.1
//
smiles.structure: NC(=O)c1cc(-c2ccc(OCc3c(Cl)cccc3Cl)cc2)no1
unit.descriptor: µM
value.observed: 2.6
//
smiles.structure: NC(=O)c1cc(-c2ccc(OCc3cccc(Cl)c3)cc2)no1
unit.descriptor: µM
value.observed: 1.5

Next up:
What value of IC50 has been recorded for this entry: `Cc1cccc2c1ccn2Cc1ccc(-c2cc(C(N)=O)on2)cc1` 0.22

###

Target: UniProtKB P13516
recorded.metric: IC50
Please report the result as a number followed by the unit.

See these solved cases before continuing.
molecule: Cc1cccc(OCc2ccc(-c3cc(C(N)=O)on3)cc2)c1
IC50: 560 nM

molecule: NC(=O)c1cc(-c2ccc(CN3CCCc4ccccc43)cc2)no1
IC50: 24 nM

molecule: NC(=O)c1cc(-c2ccc(COc3ccccc3C(F)(F)F)cc2)no1
IC50: 260 nM

molecule: COc1cccc(OCc2ccc(-c3cc(C(N)=O)on3)cc2)c1
IC50: 340 nM

molecule: Cc1cc(F)ccc1OCc1ccc(-c2cc(C(N)=O)on2)cc1
IC50: 280 nM

Dear colleague, I am looking for the recorded IC50 of the following molecule: `CC(C)(C)c1ccccc1OCc1ccc(-c2cc(C(N)=O)on2)cc1` 650 nM

What do you get for `NC(=O)c1cc(-c2ccc(Cn3cc4ccccc4n3)cc2)no1` ? 47 nM

Request: `NC(=O)c1cc(-c2ccc(OCc3cccnc3Cl)cc2)no1` 2400 nM

Field entry: `NC(=O)c1cc(-c2ccc(OCc3ccccc3OC(F)(F)F)cc2)no1` 210 nM

Please give the result for `NC(=O)c1cc(-c2ccc(Cn3ncc4ccccc43)cc2)no1` too. 74 nM

Also need `COc1ccc(OCc2ccc(-c3cc(C(N)=O)on3)cc2)cc1` , thanks. 3300 nM

Another molecule: NC(=O)c1cc(-c2ccc(OCc3ccccc3[S+]([O-])C(F)(F)F)cc2)no1 (stereo not shown) 580 nM

Another molecule: `NC(=O)c1cc(-c2ccc(COc3cccc(Cl)c3)cc2)no1` 290 nM

And for `Cc1ccc(Cl)cc1OCc1ccc(-c2cc(C(N)=O)on2)cc1` ? 140 nM

Subsequent entry: `CCc1ccccc1OCc1ccc(-c2cc(C(N)=O)on2)cc1` 210 nM
